experiment: Tissue concentration of aprepitant by HPLC after oral or inhaled administration to rabbits; assay type: in vivo, New Zealand albino rabbits; conditions: New Zealand White, rabbit, lung, right middle lobe, po, 10 mg/kg/day, Lung concentration of aprepitant LMPD, Average ± SD of cases, Group 1, oral 10 mg/kg per day, seven days
Measured attribute: concentration at 7 days (ng/g)
Numeric answer only, unit ng/g assumed.

Enquiry: Form field: reported concentration at 7 days of C[C@@H](OC1OCCN(Cc2nc(=O)[nH][nH]2)C1c1ccc(F)cc1)c1cc(C(F)(F)F)cc(C(F)(F)F)c1 (stereo in doubt) [Aprepitant]
Return: 1300

----------
assay: Tissue concentration of aprepitant by HPLC after oral or inhaled administration to rabbits; type: in vivo, New Zealand albino rabbits; conditions: New Zealand White, rabbit, lung, right middle lobe, po, 40 mg/kg/day, Lung concentration of aprepitant LMPD (right middle lobe), Group 2, oral 40 mg/kg per day, seven days; individual cases
Measured attribute: concentration at 7 days
Could you write the number and then its unit?

Enquiry: concentration at 7 days for C[C@@H](OC1OCCN(Cc2nc(=O)[nH][nH]2)C1c1ccc(F)cc1)c1cc(C(F)(F)F)cc(C(F)(F)F)c1 (stereo in doubt) [Aprepitant] ?
Return: 4200 ng/g

----------
assay: Tissue concentration of aprepitant by HPLC after oral or inhaled administration to rabbits; assay type: in vivo, New Zealand albino rabbits; conditions: New Zealand White, rabbit, lung, left inferior lobe, po, 80 mg/kg/day, Lung concentration of aprepitant LIPI, Average ± SD of cases, Group 3, oral 80 mg/kg per day, seven days
Measured attribute: concentration at 7 days (ng/g)
Reply numerically in ng/g, unit not repeated.

Enquiry: Item C[C@@H](OC1OCCN(Cc2nc(=O)[nH][nH]2)C1c1ccc(F)cc1)c1cc(C(F)(F)F)cc(C(F)(F)F)c1 (stereo in doubt) [Aprepitant] has what recorded concentration at 7 days?
Return: 3700

----------
assay: Tissue concentration of aprepitant by HPLC after oral or inhaled administration to rabbits; assay type: in vivo, New Zealand albino rabbits; details: New Zealand White, rabbit, lung, left inferior lobe, po, 40 mg/kg/day, Lung concentration of aprepitant LIPI, Average ± SD of cases, Group 2, oral 40 mg/kg per day, seven days
Measured attribute: concentration at 7 days
Units required after the number.

Enquiry: Can you look up the measured concentration at 7 days of C[C@@H](OC1OCCN(Cc2nc(=O)[nH][nH]2)C1c1ccc(F)cc1)c1cc(C(F)(F)F)cc(C(F)(F)F)c1 (stereo in doubt) [Aprepitant] for me?
Return: 4000 ng/g

----------
experiment: Tissue concentration of aprepitant by HPLC after oral or inhaled administration to rabbits; format: in vivo, New Zealand albino rabbits; conditions: New Zealand White, rabbit, lung, right superior lobe, po, 80 mg/kg/day, Lung concentration of aprepitant LSPD, Average ± SD of cases, Group 3, oral 80 mg/kg per day, seven days
Measured attribute: concentration at 7 days (ng/g)
Write the number in ng/g without appending the unit.

Enquiry: What concentration at 7 days value was documented for this compound, C[C@@H](OC1OCCN(Cc2nc(=O)[nH][nH]2)C1c1ccc(F)cc1)c1cc(C(F)(F)F)cc(C(F)(F)F)c1 (stereo in doubt) [Aprepitant] ?
Return: 4100

----------
experiment: Tissue concentration of aprepitant by HPLC after oral or inhaled administration to rabbits; type: in vivo, New Zealand albino rabbits; conditions: New Zealand White, rabbit, lung, right middle lobe, inhaled, 0.4 mg/kg/day, Lung concentration of aprepitant LMPD, Average ± SD of cases, Group 8, inhalation (aerosol, olive oil) 0.4 mg/kg per day, seven days
Measured attribute: concentration at 7 days (ng/g)
Answer with a number only, understood to be in ng/g.

Enquiry: Looking for the measured concentration at 7 days of C[C@@H](OC1OCCN(Cc2nc(=O)[nH][nH]2)C1c1ccc(F)cc1)c1cc(C(F)(F)F)cc(C(F)(F)F)c1 (stereo in doubt) [Aprepitant] , can you help?
Return: 10000

----------
test: Tissue concentration of aprepitant by HPLC after oral or inhaled administration to rabbits; type: in vivo, New Zealand albino rabbits; details: New Zealand White (albino), rabbit, lung, right superior lobe, inhaled, 0.2 mg/kg/day, Lung concentration of aprepitant LSPD (right superior lobe), Group 7, inhalation (aerosol, olive oil) 0.2 mg/kg per day, seven days; individual cases
Measured attribute: concentration at 7 days (ng/g)
Express the result in ng/g but write the number alone.

Enquiry: Field request: concentration at 7 days | item: C[C@@H](OC1OCCN(Cc2nc(=O)[nH][nH]2)C1c1ccc(F)cc1)c1cc(C(F)(F)F)cc(C(F)(F)F)c1 (stereo in doubt) [Aprepitant]
Return: 6100

----------
assay: Tissue concentration of aprepitant by HPLC after oral or inhaled administration to rabbits; assay type: in vivo, New Zealand albino rabbits; settings: New Zealand White (albino), rabbit, lung, right superior lobe, po, 100 mg/kg/day, Lung concentration of aprepitant LSPD, Average ± SD of cases, Group 4, oral 100 mg/kg per day, seven days
Measured attribute: concentration at 7 days (ng/g)
Provide only the numeric value, understood in ng/g.

Enquiry: Returns the measured concentration at 7 days for the input molecule. Input: C[C@@H](OC1OCCN(Cc2nc(=O)[nH][nH]2)C1c1ccc(F)cc1)c1cc(C(F)(F)F)cc(C(F)(F)F)c1 (stereo in doubt) [Aprepitant]
Return: 4700

----------
assay: Tissue concentration of aprepitant by HPLC after oral or inhaled administration to rabbits; format: in vivo, New Zealand albino rabbits; conditions: New Zealand White (albino), rabbit, lung, left superior lobe, inhaled, 0.1 mg/kg/day, Lung concentration of aprepitant LSPI, Average ± SD of cases, Group 6, inhalation (aerosol, olive oil) 0.1 mg/kg per day, seven days
Measured attribute: concentration at 7 days (ng/g)
Answer with a number only, understood to be in ng/g.

Enquiry: # query: concentration at 7 days of entry C[C@@H](OC1OCCN(Cc2nc(=O)[nH][nH]2)C1c1ccc(F)cc1)c1cc(C(F)(F)F)cc(C(F)(F)F)c1 (stereo in doubt) [Aprepitant]
Return: 2700

----------
assay: Tissue concentration of aprepitant by HPLC after oral or inhaled administration to rabbits; format: in vivo, New Zealand albino rabbits; conditions: New Zealand White (albino), rabbit, lung, left superior lobe, inhaled, 0.2 mg/kg/day, Lung concentration of aprepitant LSPI (left superior lobe), Group 7, inhalation (aerosol, olive oil) 0.2 mg/kg per day, seven days; individual cases
Measured attribute: concentration at 7 days

Enquiry: What value of measured concentration at 7 days is listed for C[C@@H](OC1OCCN(Cc2nc(=O)[nH][nH]2)C1c1ccc(F)cc1)c1cc(C(F)(F)F)cc(C(F)(F)F)c1 (stereo in doubt) [Aprepitant] ?
Return: 6100 ng/g

----------
experiment: Tissue concentration of aprepitant by HPLC after oral or inhaled administration to rabbits; assay type: in vivo, New Zealand albino rabbits; details: New Zealand White, rabbit, lung, right middle lobe, po, 80 mg/kg/day, Lung concentration of aprepitant LMPD (right middle lobe), Group 3, oral 80 mg/kg per day, seven days; individual cases
Measured attribute: concentration at 7 days (ng/g)
Reply numerically in ng/g, unit not repeated.

Enquiry: Find the recorded concentration at 7 days belonging to C[C@@H](OC1OCCN(Cc2nc(=O)[nH][nH]2)C1c1ccc(F)cc1)c1cc(C(F)(F)F)cc(C(F)(F)F)c1 (stereo in doubt) [Aprepitant] and report it.
Return: 4800

----------
assay: Tissue concentration of aprepitant by HPLC after oral or inhaled administration to rabbits; assay type: in vivo, New Zealand albino rabbits; settings: New Zealand White, rabbit, lung, right superior lobe, po, 40 mg/kg/day, Lung concentration of aprepitant LSPD, Average ± SD of cases, Group 2, oral 40 mg/kg per day, seven days
Measured attribute: concentration at 7 days (ng/g)
Number in ng/g, nothing else.

Enquiry: Would you mind telling me what concentration at 7 days value was observed for C[C@@H](OC1OCCN(Cc2nc(=O)[nH][nH]2)C1c1ccc(F)cc1)c1cc(C(F)(F)F)cc(C(F)(F)F)c1 (stereo in doubt) [Aprepitant] ?
Return: 3500

----------
assay: Tissue concentration of aprepitant by HPLC after oral or inhaled administration to rabbits; type: in vivo, New Zealand albino rabbits; conditions: New Zealand White (albino), rabbit, lung, right inferior lobe, inhaled, 0.1 mg/kg/day, Lung concentration of aprepitant LIPD, Average ± SD of cases, Group 6, inhalation (aerosol, olive oil) 0.1 mg/kg per day, seven days
Measured attribute: concentration at 7 days (ng/g)
// return numeric value only (unit: ng/g, not printed)

Enquiry: Please give the measured concentration at 7 days for this compound: C[C@@H](OC1OCCN(Cc2nc(=O)[nH][nH]2)C1c1ccc(F)cc1)c1cc(C(F)(F)F)cc(C(F)(F)F)c1 (stereo in doubt) [Aprepitant]
Return: 2800

----------
assay: Tissue concentration of aprepitant by HPLC after oral or inhaled administration to rabbits; type: in vivo, New Zealand albino rabbits; details: New Zealand White, rabbit, lung, right inferior lobe, inhaled, 0.4 mg/kg/day, Lung concentration of aprepitant LIPD, Average ± SD of cases, Group 8, inhalation (aerosol, olive oil) 0.4 mg/kg per day, seven days
Measured attribute: concentration at 7 days
Answer as a quantity: numeral, then unit.

Enquiry: Data request, read-out concentration at 7 days, for C[C@@H](OC1OCCN(Cc2nc(=O)[nH][nH]2)C1c1ccc(F)cc1)c1cc(C(F)(F)F)cc(C(F)(F)F)c1 (stereo in doubt) [Aprepitant]
Return: 10100 ng/g
